Documented koff across a set of binders
Measurement Target: T1, recombinant human CD70 (Flag-TNC-CD70) (human, UniProt P32970 39-193)
T1 construct: extracellular domain; Captured by anti-Flag mAb in ELISA; as 'recombinant human CD70' immobilised on Biacore CM5 chips; TNC is for trimerisation; also called recombinant CD70; human recombinant CD70; not shown: Flag tag and TNC trimerisation domain
T1 sequence (looked up): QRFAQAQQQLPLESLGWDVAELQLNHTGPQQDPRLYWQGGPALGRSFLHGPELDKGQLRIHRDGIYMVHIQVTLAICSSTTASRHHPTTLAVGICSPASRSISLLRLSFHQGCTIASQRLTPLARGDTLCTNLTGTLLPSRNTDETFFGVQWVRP
Assay Summary: Biacore; recombinant human CD70 on CM5 chip; Fab injected
Report only the number, with the unit s⁻¹ understood.

Worked examples, 4 binders total:
Binder | Endpoint Value
45B12 Fab (Fab, V domains shown, Llama-derived Fab) VH: EVQLVESGGGLVQPGGSLRLSCAASGFTFSAYYMNWVRQAPGKGLEWISDINNEGYETYYADSVKGRFTISRDNAKNTLTLQMDSLKPEDTARYYCVRDAGYSNHVQIFDSWGQGTQVIVAS VL: QAVLTQPSSVSVSLGQTAKITCQGGNLGLYGANWYQQNPGRAPILLIYGDNYRPLGIPERFTISKSGGTATLTIDGAQAEDESDYYCQSADYSGNSVFGGGTKLTVLG | 0.00021
45F8 Fab (Fab, V domains shown, Llama-derived Fab) VH: EVQLVESGGGLVQPGGSLRLSCAASGFTFSAYYMNWVRQAPGKGLEWISDINNEGYETYYADSVKGRFTISRDNAKNTLTLQMDSLKPEDTARYYCVRDAGYSNHVQIFDSWGQGTQVIVAS VL: QAVLTQPSSVSVSLGQTANITCQGGNLGLYGANWYQQNPGRAPILLFYGDNYMPLGIPERFTISKSGGTATLTIDGAQAENESDYYCQSSDYPGNSVFGGGTKLTVLG | 0.0002
9B2 Fab (Fab, V domains shown, Llama-derived Fab) VH: QLQVVESGGGLMQPGGSLRLSCAASGFTFSGSAMSWVRQAPGKGLEWVSSIYSHSMYTYYADSVKSRFTISTDNAKNTLYLQMNSLKPDDTAVYYCAASSDYEGLFVSWGQGTQVTVSS VL: QAVLTQPPSLSASPGSSVRLTCTLNSANSVGSYDISWYQQKAGSPPRYLLYYYSDSLSHQGSGVPSRFSGSTDASANAGLLLISGLQPEDEADYYCSAYNRGSHVFGGGTKLTVLG | 0.00028
5F4 Fab (Fab, V domains shown, Llama-derived Fab) VH: EVQVQESGGGLVHPGGSLKLSCAASGFTFDTYAMSWVRQAPGKGLEWVSAISWSGGETFYAESMKGRFTISRNNAKNTLYLQMNSLKSEDTAVYYCARGMGLAEGLTDWGQGTQVTVSS VL: QAVVTHPPSLSASPGSSVRLTCTLISGDNIGGYDISWYQQKTGSPPRYLLYYYSDSYKHQSSGVPSRFSGSKDASANAGLLLISGLQSEDEADYYCSAYKSGSYKAPVFGGGTHLTVLG | 8e-05

Okay, now this binder:
Q: // query koff value for entry 45D9 Fab (Fab, V domains shown, Llama-derived Fab) VH: EVQLVESGGGLVQPGGSLRLSCAASGFTFSAYYMNWVRQAPGKGLEWISDINNEGYETYYADSVKGRFTISRDNAKNTLTLQMDSLKPEDTARYYCVRDAGYSNHVQIFDSWGQGTQVIVAS VL: QAVLTQPSSVSVSLGQTAKITCQGGNLWLYGANWYQQNPGRAPILLIYGDNQRPLGIPERFTISKSGGTATLTIDGAQAEDESDYYCQSADYSGNSVFGGGTKLTVLG
A: 0.00021
